molecular target: ALK (Homo sapiens); construct: host or cells: baculovirus expression system; assay: ALK Kinase Assay (ELISA/TRF, PLC-γ substrate); assay type: biochemical; settings: ALK Kinase Inhibition; read-out: ALK Potency
pIC50: −log10 of the molar value.
value kind: pIC50

Look over these answered cases.
- chem smiles: "NC(=O)CN1CCC(c2ccc(Nc3ncc4ccc(-c5ccccc5O)n4n3)cc2)CC1"
  measured target: "ALK (Homo sapiens)"
  value kind: "pIC50"
  value reported: "6.00 to 7.00"
- chem smiles: "c1cc(Nc2ncc3cccn3n2)cc(N2CCOCC2)c1"
  measured target: "ALK (Homo sapiens)"
  value kind: "pIC50"
  value reported: "< 5.00"
- chem smiles: "CN1CCN(c2ccc(Nc3ncc4ccc(-c5ccccc5C(N)=O)n4n3)cc2)CC1"
  measured target: "ALK (Homo sapiens)"
  value kind: "pIC50"
  value reported: "6.00 to 7.00"
- chem smiles: "CC(C)(C)NS(=O)(=O)c1cccc(-c2ccc3cnc(Nc4ccc(F)c(N5CCOCC5)c4)nn23)c1"
  measured target: "ALK (Homo sapiens)"
  value kind: "pIC50"
  value reported: "6.00 to 7.00"
- chem smiles: "COc1cc(N2CCC(N3CCOCC3)CC2)ccc1Nc1ncc2ccc(-c3ccccc3C(C)=O)n2n1"
  measured target: "ALK (Homo sapiens)"
  value kind: "pIC50"
  value reported: "> 7.00"

Consider the additional compound presented here.
So, COc1ccc(Cl)cc1-c1ccc2cnc(Nc3ccc(C(C)(C)C)c(NC(C)=O)c3)nn12 ? Its pIC50 was 6.00 to 7.00

###

Reported pIC50 values for the following compounds.
target: ALK (Homo sapiens, UniProt Q9UM73); construct: host or cells: baculovirus expression system; assay: ALK Kinase Assay (ELISA/TRF, PLC-γ substrate); type: biochemical; conditions: ALK kinase inhibition, 1 μM ATP; read-out: ALK Potency
Sequence (Q9UM73 19-1620): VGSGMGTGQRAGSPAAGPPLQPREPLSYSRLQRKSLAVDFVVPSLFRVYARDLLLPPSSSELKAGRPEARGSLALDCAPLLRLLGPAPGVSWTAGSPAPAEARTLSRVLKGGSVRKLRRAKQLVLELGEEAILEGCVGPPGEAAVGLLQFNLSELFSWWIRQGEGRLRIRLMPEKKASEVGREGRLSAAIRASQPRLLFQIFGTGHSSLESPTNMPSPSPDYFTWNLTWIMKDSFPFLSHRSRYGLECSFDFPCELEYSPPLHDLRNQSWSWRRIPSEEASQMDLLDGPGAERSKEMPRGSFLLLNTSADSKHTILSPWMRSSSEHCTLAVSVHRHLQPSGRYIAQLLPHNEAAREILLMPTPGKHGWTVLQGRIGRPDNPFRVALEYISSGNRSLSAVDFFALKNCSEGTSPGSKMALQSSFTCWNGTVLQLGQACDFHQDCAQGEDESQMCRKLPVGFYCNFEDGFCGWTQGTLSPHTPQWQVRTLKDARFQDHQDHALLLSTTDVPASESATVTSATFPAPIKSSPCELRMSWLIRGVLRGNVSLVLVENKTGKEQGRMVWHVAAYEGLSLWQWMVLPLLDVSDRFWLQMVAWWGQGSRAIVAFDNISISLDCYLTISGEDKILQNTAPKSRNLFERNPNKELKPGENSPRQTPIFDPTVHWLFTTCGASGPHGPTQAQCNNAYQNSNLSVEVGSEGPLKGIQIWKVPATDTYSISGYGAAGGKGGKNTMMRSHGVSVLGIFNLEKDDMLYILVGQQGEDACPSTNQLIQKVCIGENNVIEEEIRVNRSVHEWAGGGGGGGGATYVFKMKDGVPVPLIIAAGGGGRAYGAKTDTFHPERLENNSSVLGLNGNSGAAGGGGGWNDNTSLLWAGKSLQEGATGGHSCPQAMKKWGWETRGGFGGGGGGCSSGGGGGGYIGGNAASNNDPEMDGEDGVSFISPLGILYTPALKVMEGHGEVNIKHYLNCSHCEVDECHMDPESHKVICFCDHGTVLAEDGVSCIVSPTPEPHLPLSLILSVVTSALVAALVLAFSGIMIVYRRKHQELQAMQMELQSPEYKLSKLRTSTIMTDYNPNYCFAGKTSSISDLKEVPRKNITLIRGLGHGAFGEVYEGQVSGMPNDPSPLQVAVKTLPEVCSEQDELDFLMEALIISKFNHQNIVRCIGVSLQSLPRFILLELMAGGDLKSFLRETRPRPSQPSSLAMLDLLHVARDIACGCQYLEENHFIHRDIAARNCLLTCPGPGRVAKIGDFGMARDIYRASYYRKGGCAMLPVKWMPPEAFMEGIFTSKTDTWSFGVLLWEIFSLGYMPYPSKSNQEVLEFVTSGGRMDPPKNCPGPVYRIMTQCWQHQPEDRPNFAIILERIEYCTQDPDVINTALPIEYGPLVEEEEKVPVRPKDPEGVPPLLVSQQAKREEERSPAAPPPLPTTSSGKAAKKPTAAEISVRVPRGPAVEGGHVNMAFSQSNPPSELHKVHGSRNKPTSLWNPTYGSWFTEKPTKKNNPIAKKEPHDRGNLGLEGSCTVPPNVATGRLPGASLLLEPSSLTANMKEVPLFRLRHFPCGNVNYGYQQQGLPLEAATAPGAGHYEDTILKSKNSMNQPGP
pIC50: −log10 of the molar value.

These recorded examples may help you get a feel for the data.
- compound: "CN(c1ccccc1-c1ccc2cnc(Nc3ccc4c(c3)CCC(N3CCOCC3)CC4)nn12)S(C)(=O)=O (stereo not shown)"
  pIC50: "> 7.00"
- compound: "COc1cc2c(cc1Nc1ncc3ccc(-c4ccccc4OC)n3n1)CCCC(N1CCOCC1)C2 (stereo not shown)"
  pIC50: "> 7.00"
- compound: "CS(=O)(=O)N1Cc2cccc(-c3ccc4cnc(Nc5ccc(C6CCN(CC(N)=O)CC6)cc5)nn34)c2C1"
  pIC50: "5.00 to 6.00"

Continue with the next compound.
compound CN1CCCC1COc1cc(Nc2ncc3ccc(-c4cccc(S(=O)(=O)NC(C)(C)C)c4)n3n2)ccc1Cl (stereo not shown) , pIC50 observed: 6.00 to 7.00

###

biological target: ALK (Homo sapiens, UniProt Q9UM73); construct: host or cells: baculovirus expression system; assay: ALK Kinase Assay (ELISA/TRF, PLC-γ substrate); assay type: biochemical; settings: ALK Kinase Inhibition; read-out: ALK Potency
pIC50: −log10 of the molar value.
value kind: pIC50

ALK (Homo sapiens, UniProt Q9UM73) assay, compound CN1CCN(C(=O)c2cccc(Nc3ncc4ccc(-c5ccc(S(C)(=O)=O)cc5)n4n3)c2)CC1 , recorded pIC50 = 5.00 to 6.00

Record CN1CCN(c2ccc(Nc3ncc4c(-c5ccccc5Cl)ccn4n3)cc2)CC1 has ALK (Homo sapiens, UniProt Q9UM73) pIC50 equal to < 5.00
